Source listed as the supplement of paper PMC12764529.

- protocol: folding stability dG unfold from trypsin proteolysis; higher = more stable
Task for the reader: assign each of the following sequences its reported folding stability dG unfold.
Answers are plain numbers, in kcal/mol.

ordered_residues	unit_label	folding stability dG unfold
SAGGSAKKKEKKVEKKVITIEVEPGVKTPEEMLEAIRKLKEEYPDTKIIIKASDEQKEALKRLLKESAGGSA [r15_89_TrROS_Hall]	kcal/mol	0.669
SPLELPSDEEITVNAEVLILPYNPETGEIEDEIPIPLPVKIKVKKDGSVEIEIDIPDSIPENVPIVLLLKSA [r9_90_TrMRF]	kcal/mol	1.29
SNNKRITIEIPFPMPAEQARNFMEAFGIKKIEYEKHDDPGYYRVKYTVPDDNVTIDIHIFPPPVPPGQKPSA [r9_1090_TrROS]	kcal/mol	1.23
SAGGKKMTFKVDEIQTHGNQIMIPIRFPDGHPFPMQIDDPEQLDNLKPGEEIKIEFRPDGSFRIEWRSAGGS [r16_2_TrROS]	kcal/mol	1.45
SAGGSAGGSAANVTREPRFDPSTNLVRTLVRFPDGSVREEILEITKNPDGTLTYKRFERPPSAGGSAGGSAG [r3_474_JUSTAS]	kcal/mol	0.383
SAGGSAGGMKTVTTPVYAVMPEEEAEALAKELEEKYPNVEIEVEREELPDGRVRVTITVTKPLGSAGGSAGG [r6_105_JUSTAS]	kcal/mol	1.19
SAGGSAKRKVEIEIYISREELEEAKKNGKEPTAEAQKQIHRIAKRAREEGMDTVEIKIIPPGQPIPSAGGSA [r15_304_TrROS]	kcal/mol	-0.0963
SAGGSAGGSAGKNWFFRIKIKYPNGEERTIYIPGTLDEIKEELPGPIKNIDIEPMPAEDMSAGGSAGGSAGG [r11_596_TrROS]	kcal/mol	1.05
SAGGSFPIADVKEVKVEAYPETNTAKVPFTFPNGVTAVADAYLDPVTGRPVLVVRTPDGRLVVLPLSAGGSA [r2_490_TrMRF]	kcal/mol	1.43
SAGGSAGGSKKKKKVKYKIKVINPEKPEVKEIEIEAENEEEAKKLAEELAKKYPGVKVEIEKTSAGGSAGGS [r12_601_TrROS_Hall]	kcal/mol	1.08

Below are some sequences; for each one, tell me its folding stability dG unfold.
1. SAGGSAMKKIKIEVEKKGDEYIVRIKIKNPDGKIEEIEIKLKDEEEAKKLAEELLKEGKIDEIELESAGGSA [r15_575_TrROS_Hall]
2. SAGKKVKKITLTIKNKETGEYYKAEVIENENGEKYIKIINKKTGKIYIFKIKDGKIEPVKEISLKDIKPSAG [r5_619_TrROS_Hall]

Ans:
2.7
1.85

Below are some sequences; for each one, tell me its folding stability dG unfold.
1. SAGGLKELLEALKEGNLEEALEALKKLGIEEVKIEIKPVVRVVITVEVPKEKVKVKVEVRVFLPEEELSAGG [r13_359_TrROS_Hall]
2. MDVKIEPYRDPETGELYYKAVVKFKDGKEKLIEVKVPPNGKPIAKIYDPNGKLLAEKEFDSIEEALKEALAS [r1_478_TrMRF]

Ans:
1: 1.94; 2: 3.3
